The measured values listed here are drawn from patent US11021424B2.

System: FRDA fibroblasts
Test: Rescue of FRDA fibroblasts stressed by L-buthionine-(S,R)-sulfoximine (BSO), viability by Calcein AM fluorescence
Format: cell-based, human
Details: Homo sapiens; BSO-stressed (1 mM) FRDA fibroblasts GM04078; first of three experiments; read-out: EC50 Value 1
pEC50: −log10 of the molar value.

Compound	pEC50
CC1=C(C)C(=O)C(CC[C@](C)(O)CCC[C@H](C)CCC[C@H](C)CCCC(C)C)=C(C)C1=O [α-tocopherol quinone]	12.00
